Data provenance is patent US9732094B2.

pIC50: recorded values
measured-on: DNA-PK (Homo sapiens (Human), UniProt P78527)
experiment: DNA-PK assay (biochemical), flashplate 33P-ATP kinase assay
conditions: enzymatic; 5 μM ATP
pIC50: −log10 of the molar value.

CCOc1cnnc(C(O)c2ccc(F)c(-c3ncnc4cc(N5CCOCC5)ccc34)c2)c1 (centres unmarked) [Example 79] : < 7.52

Attention now shifts to the item below.
*Q* Item COc1ccc(C(O)c2cc(-c3ncnc4cc(N5CCOCC5)sc34)c(F)cc2Cl)nn1 (centres unmarked) [Example 128] has what recorded pIC50?
*A* > 8.52

###

measured-on: DNA-PK (Homo sapiens (Human), UniProt P78527)
experiment: DNA-PK assay (biochemical), flashplate 33P-ATP kinase assay
conditions: enzymatic; 5 μM ATP
pIC50: −log10 of the molar value.
assay-readout: pIC50

Example molecules with recorded pIC50:
C#Cc1nc(-c2cc(C(O)c3nccs3)ccc2F)c2ccc(N3CCOCC3)cc2n1 (centres unmarked) [Example 208] : 8.15 to 8.52
O=c1ccc(C(O)c2ccc(F)c(-c3ncnc4cc(N5C6CCC5COC6)ccc34)c2)n[nH]1 (centres unmarked) : < 7.52

*Q* Item Cc1nccnc1C(O)c1ccc(F)c(-c2ncnc3cc(N4CCOCC4)ccc23)c1 (centres unmarked) has what recorded pIC50?
*A* 8.15 to 8.52

*Q* Item Cn1nc(C(O)c2cc(-c3ncnc4cc(N5CCOCC5)ccc34)c(F)cc2Cl)ccc1=O (centres unmarked) [Example 59] has what recorded pIC50?
*A* > 8.52

*Q* Item COc1cc(Cl)nnc1C(O)c1cc(-c2ncnc3cc(N4CCOCC4)ccc23)c(F)cc1Cl (centres unmarked) has what recorded pIC50?
*A* 7.52 to 8.15

*Q* Item Cc1nccnc1C(O)c1cc(-c2ncnc3cc(N4CCOCC4)ccc23)c(F)cc1F (centres unmarked) [Example 85] has what recorded pIC50?
*A* > 8.52

*Q* Item OC(c1cccnn1)c1cc(-c2ncnc3cc(N4CCOCC4)ccc23)c(F)cc1Cl (single isomer, unassigned) [Example 29] has what recorded pIC50?
*A* 7.52 to 8.15

*Q* Item NCCn1nc(C(O)c2cc(-c3ncnc4cc(N5CCOCC5)ccc34)c(F)cc2Cl)ccc1=O (centres unmarked) has what recorded pIC50?
*A* 7.52 to 8.15

*Q* Item Nc1nccnc1C(O)c1cc(-c2ncnc3cc(N4CCOCC4)ccc23)c(F)cc1Cl (centres unmarked) has what recorded pIC50?
*A* 8.15 to 8.52

*Q* Item CC(C#N)Oc1ccc(C(O)c2cc(-c3ncnc4cc(N5CCOCC5)ccc34)c(F)cc2Cl)nn1 (centres unmarked) [Example 101] has what recorded pIC50?
*A* > 8.52

*Q* Item OC(c1ccc2nccn2n1)c1cc(-c2ncnc3cc(N4CCOCC4)ccc23)c(F)cc1Cl (centres unmarked) [Example 56] has what recorded pIC50?
*A* 8.15 to 8.52
